molecular target: UniProt:P49841
Sequence (P49841 whole entry, looked up): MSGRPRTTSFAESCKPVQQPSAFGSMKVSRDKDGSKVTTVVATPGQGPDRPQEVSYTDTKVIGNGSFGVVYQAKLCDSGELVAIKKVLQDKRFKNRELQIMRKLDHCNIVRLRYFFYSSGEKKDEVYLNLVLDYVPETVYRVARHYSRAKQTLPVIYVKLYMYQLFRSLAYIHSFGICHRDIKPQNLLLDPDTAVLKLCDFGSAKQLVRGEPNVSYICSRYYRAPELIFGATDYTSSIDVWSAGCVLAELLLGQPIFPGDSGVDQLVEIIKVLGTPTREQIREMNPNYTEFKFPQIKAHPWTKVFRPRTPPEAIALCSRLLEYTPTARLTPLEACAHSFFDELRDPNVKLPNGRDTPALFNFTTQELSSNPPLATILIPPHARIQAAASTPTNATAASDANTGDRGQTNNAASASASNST
Everything with ΔTm lower than 0.6 °C is -1; everything else, including exactly 0.6 °C, is 1.

Worked cases, answers included:
[Q] # check: ΔTm of CN1CCC(Nc2ncc3ncnc(Nc4ccc(F)c(Cl)c4)c3n2)CC1 is greater than or equal to 0.6 °C
[A] 1

[Q] # check: ΔTm of Oc1cc(O)cc(/C=C/c2ccc(O)c(O)c2)c1 is greater than or equal to 0.6 °C
[A] 1

[Q] # check: ΔTm of NCCNS(=O)(=O)c1cccc2c(Cl)cccc12 is greater than or equal to 0.6 °C
[A] -1

[Q] # check: ΔTm of Cc1nc2sccn2c(=O)c1CCN1CCC(=C(c2ccccc2)c2ccc(F)cc2)CC1 is greater than or equal to 0.6 °C
[A] 1

[Q] # check: ΔTm of COc1ccc2c(c[n+](C)c3c4cc5c(cc4ccc23)OCO5)c1OC [CHELERYTHRINE CHLORIDE] is greater than or equal to 0.6 °C
[A] -1

Now look at this one.
[Q] # check: ΔTm of O=S(=O)(c1cccc2c(Cl)cccc12)N1CCCNCC1 is greater than or equal to 0.6 °C
[A] -1
